Hey, just so you know, these numbers are from ChEMBL document CHEMBL3045462.

tested on: Fusarium oxysporum; assay: Growth inhibition of Fusarium oxysporum at 1000 ppm after 96 hr by poisoned food technique; format: functional; settings: read-out: GI
This section presents molecules with their documented inhibition of growth at 1000 ppm values.

{"sample.smiles": "C[C@@H]1S[C@@H](c2ccccc2O)N(c2ccc(CCc3ccc(N4C(=O)[C@H](C)S[C@H]4c4ccccc4O)cc3)cc2)C1=O", "inhibition of growth at 1000 ppm": "88%"}
{"sample.smiles": "COc1ccc([C@@H]2SCC(=O)N2c2ccc(CCc3ccc(N4C(=O)CS[C@H]4c4ccc(OC)cc4)cc3)cc2)cc1", "inhibition of growth at 1000 ppm": "61%"}
{"sample.smiles": "COc1ccc([C@@H]2SCC(=O)N2c2ccc(CCc3ccc(N4C(=O)CS[C@H]4c4ccc(OC)c(OC)c4)cc3)cc2)cc1OC", "inhibition of growth at 1000 ppm": "38%"}
{"sample.smiles": "COc1ccc(/C=N/c2ccc(CCc3ccc(/N=C/c4ccc(OC)cc4)cc3)cc2)cc1", "inhibition of growth at 1000 ppm": "46%"}
{"sample.smiles": "COc1cc([C@@H]2SCC(=O)N2c2ccc(CCc3ccc(N4C(=O)CS[C@H]4c4ccc(O)c(OC)c4)cc3)cc2)ccc1O", "inhibition of growth at 1000 ppm": "78%"}
{"sample.smiles": "O=C1CS[C@@H](c2ccccc2)N1c1ccc(CCc2ccc(N3C(=O)CS[C@H]3c3ccccc3)cc2)cc1", "inhibition of growth at 1000 ppm": "55%"}
{"sample.smiles": "O=C1CS[C@@H](c2ccccc2O)N1c1ccc(CCc2ccc(N3C(=O)CS[C@H]3c3ccccc3O)cc2)cc1", "inhibition of growth at 1000 ppm": "61%"}
{"sample.smiles": "Oc1ccccc1/C=N/c1ccc(CCc2ccc(/N=C/c3ccccc3O)cc2)cc1", "inhibition of growth at 1000 ppm": "62%"}
{"sample.smiles": "COc1cc(/C=N/c2ccc(CCc3ccc(/N=C/c4ccc(O)c(OC)c4)cc3)cc2)ccc1O", "inhibition of growth at 1000 ppm": "51%"}
{"sample.smiles": "C[C@@H]1S[C@@H](c2ccc(Cl)cc2)N(c2ccc(CCc3ccc(N4C(=O)[C@H](C)S[C@H]4c4ccc(Cl)cc4)cc3)cc2)C1=O", "inhibition of growth at 1000 ppm": "75%"}

----------
test system: Fusarium oxysporum; assay: Growth inhibition of Fusarium oxysporum at 1000 ppm after 96 hr by poisoned food technique; type: functional; settings: read-out: GI
So basically: inhibition of growth at 1000 ppm at 80% or higher? That is 1 (yes). Lower than 80%? That is 0 (no).

{"sample.smiles": "COc1ccc([C@@H]2S[C@@H](C)C(=O)N2c2ccc(CCc3ccc(N4C(=O)[C@H](C)S[C@H]4c4ccc(OC)c(OC)c4)cc3)cc2)cc1OC", "answer.label": "0 (no)"}
{"sample.smiles": "COc1ccc(/C=N/c2ccc(CCc3ccc(/N=C/c4ccc(OC)c(OC)c4)cc3)cc2)cc1OC", "answer.label": "0 (no)"}
{"sample.smiles": "COc1ccc([C@@H]2S[C@@H](C)C(=O)N2c2ccc(CCc3ccc(N4C(=O)[C@H](C)S[C@H]4c4ccc(OC)cc4)cc3)cc2)cc1", "answer.label": "1 (yes)"}
{"sample.smiles": "Clc1ccc(/C=N/c2ccc(CCc3ccc(/N=C/c4ccc(Cl)cc4)cc3)cc2)cc1", "answer.label": "1 (yes)"}
{"sample.smiles": "C(=N\\c1ccc(CCc2ccc(/N=C/c3ccccc3)cc2)cc1)/c1ccccc1", "answer.label": "0 (no)"}
{"sample.smiles": "COc1cc([C@@H]2S[C@@H](C)C(=O)N2c2ccc(CCc3ccc(N4C(=O)[C@H](C)S[C@H]4c4ccc(O)c(OC)c4)cc3)cc2)ccc1O", "answer.label": "1 (yes)"}
{"sample.smiles": "C[C@@H]1S[C@@H](c2ccccc2)N(c2ccc(CCc3ccc(N4C(=O)[C@H](C)S[C@H]4c4ccccc4)cc3)cc2)C1=O", "answer.label": "1 (yes)"}

----------
system: Fusarium oxysporum; assay: Growth inhibition of Fusarium oxysporum at 10 ppm after 96 hr by poisoned food technique; assay type: functional; details: read-out: GI
Quick list: inhibition of growth at 10 ppm per entry.

{"sample.smiles": "COc1cc(/C=N/c2ccc(CCc3ccc(/N=C/c4ccc(O)c(OC)c4)cc3)cc2)ccc1O", "inhibition of growth at 10 ppm": "48%"}
{"sample.smiles": "C[C@@H]1S[C@@H](c2ccc(Cl)cc2)N(c2ccc(CCc3ccc(N4C(=O)[C@H](C)S[C@H]4c4ccc(Cl)cc4)cc3)cc2)C1=O", "inhibition of growth at 10 ppm": "40%"}
{"sample.smiles": "C[C@@H]1S[C@@H](c2ccccc2O)N(c2ccc(CCc3ccc(N4C(=O)[C@H](C)S[C@H]4c4ccccc4O)cc3)cc2)C1=O", "inhibition of growth at 10 ppm": "30%"}
{"sample.smiles": "COc1ccc([C@@H]2S[C@@H](C)C(=O)N2c2ccc(CCc3ccc(N4C(=O)[C@H](C)S[C@H]4c4ccc(OC)c(OC)c4)cc3)cc2)cc1OC", "inhibition of growth at 10 ppm": "51%"}
{"sample.smiles": "C(=N\\c1ccc(CCc2ccc(/N=C/c3ccccc3)cc2)cc1)/c1ccccc1", "inhibition of growth at 10 ppm": "9%"}
{"sample.smiles": "COc1cc([C@@H]2S[C@@H](C)C(=O)N2c2ccc(CCc3ccc(N4C(=O)[C@H](C)S[C@H]4c4ccc(O)c(OC)c4)cc3)cc2)ccc1O", "inhibition of growth at 10 ppm": "76%"}
{"sample.smiles": "COc1ccc([C@@H]2S[C@@H](C)C(=O)N2c2ccc(CCc3ccc(N4C(=O)[C@H](C)S[C@H]4c4ccc(OC)cc4)cc3)cc2)cc1", "inhibition of growth at 10 ppm": "41%"}
{"sample.smiles": "O=C1CS[C@@H](c2ccccc2O)N1c1ccc(CCc2ccc(N3C(=O)CS[C@H]3c3ccccc3O)cc2)cc1", "inhibition of growth at 10 ppm": "39%"}
{"sample.smiles": "Clc1ccc(/C=N/c2ccc(CCc3ccc(/N=C/c4ccc(Cl)cc4)cc3)cc2)cc1", "inhibition of growth at 10 ppm": "20%"}
{"sample.smiles": "COc1cc([C@@H]2SCC(=O)N2c2ccc(CCc3ccc(N4C(=O)CS[C@H]4c4ccc(O)c(OC)c4)cc3)cc2)ccc1O", "inhibition of growth at 10 ppm": "40%"}
{"sample.smiles": "COc1ccc([C@@H]2SCC(=O)N2c2ccc(CCc3ccc(N4C(=O)CS[C@H]4c4ccc(OC)c(OC)c4)cc3)cc2)cc1OC", "inhibition of growth at 10 ppm": "24%"}
{"sample.smiles": "COc1ccc(/C=N/c2ccc(CCc3ccc(/N=C/c4ccc(OC)c(OC)c4)cc3)cc2)cc1OC", "inhibition of growth at 10 ppm": "31%"}
{"sample.smiles": "COc1ccc(/C=N/c2ccc(CCc3ccc(/N=C/c4ccc(OC)cc4)cc3)cc2)cc1", "inhibition of growth at 10 ppm": "29%"}
{"sample.smiles": "Oc1ccccc1/C=N/c1ccc(CCc2ccc(/N=C/c3ccccc3O)cc2)cc1", "inhibition of growth at 10 ppm": "25%"}
{"sample.smiles": "C[C@@H]1S[C@@H](c2ccccc2)N(c2ccc(CCc3ccc(N4C(=O)[C@H](C)S[C@H]4c4ccccc4)cc3)cc2)C1=O", "inhibition of growth at 10 ppm": "59%"}
{"sample.smiles": "O=C1CS[C@@H](c2ccccc2)N1c1ccc(CCc2ccc(N3C(=O)CS[C@H]3c3ccccc3)cc2)cc1", "inhibition of growth at 10 ppm": "12%"}
{"sample.smiles": "O=C1CS[C@@H](c2ccc(Cl)cc2)N1c1ccc(CCc2ccc(N3C(=O)CS[C@H]3c3ccc(Cl)cc3)cc2)cc1", "inhibition of growth at 10 ppm": "15%"}
{"sample.smiles": "COc1ccc([C@@H]2SCC(=O)N2c2ccc(CCc3ccc(N4C(=O)CS[C@H]4c4ccc(OC)cc4)cc3)cc2)cc1", "inhibition of growth at 10 ppm": "24%"}
